So I've got a bunch of molecules here, and I need their CL/F values.
Experiment: Clearance in Sprague-Dawley rat at 5 mg/kg, po by LC/MS/MS analysis
Format: ADME, organism-based
Settings: in vivo
Numeric only. Scale: mL/min/kg

Enquiry: If you can, please state the reported CL/F value of Cc1c(C(=O)Nc2ccc(N3C[C@@H](C)O[C@@H](C)C3)nc2)cccc1-c1ccc(OC(F)(F)F)cc1 [SONIDEGIB] .
Return: 9.72

Enquiry: Form field: reported CL/F of "Cc1ccc(CN2CCOCC2)cc1NC(=O)c1ccc(Nc2nccc(-c3ccc(OC(F)(F)F)cc3)n2)cc1"
Return: 12.3

Enquiry: Which CL/F is listed for CS(=O)(=O)c1ccc(C(=O)Nc2ccc(Cl)c(-c3ccccn3)c2)c(Cl)c1 [VISMODEGIB] ?
Return: 4.68

Enquiry: # get_value(readout='CL/F', item= "Cc1ccc(CN2CCOCC2)cc1NC(=O)c1ccc(Nc2ncc(F)c(-c3ccc(OC(F)(F)F)cc3)n2)cc1" )
Return: 15.5

Enquiry: What does the data say about its CL/F? Entry: "Cc1ccc(CN2CCOCC2)cc1NC(=O)c1ccc(Nc2nccc(-c3ccc(OC(F)(F)F)cc3)n2)cn1"
Return: 123

Enquiry: Fill in the blank: the reported CL/F of "Cc1ccc(CN2CCOCC2)cc1NC(=O)c1ccc(Nc2ncc(F)c(-c3ccc(OC(F)(F)F)cc3)n2)cn1" is ____.
Return: 80.8

###

Test: Apparent volume of distribution in Sprague-Dawley rat at 1 mg/kg, iv by LC/MS/MS analysis
Settings: in vivo
measured-attribute: Vd

Enquiry: # input molecule: "Cc1ccc(CN2CCOCC2)cc1NC(=O)c1ccc(Nc2ncc(F)c(-c3ccc(OC(F)(F)F)cc3)n2)cn1" ; wanted: its Vd
Return: 6.28 L/kg

Enquiry: Would you mind telling me what Vd value was observed for "Cc1ccc(CN2CCOCC2)cc1NC(=O)c1ccc(Nc2ncc(F)c(-c3ccc(OC(F)(F)F)cc3)n2)nc1" ?
Return: 4.62 L/kg

Enquiry: Consider the molecule "Cc1ccc(CN2CCOCC2)cc1NC(=O)c1ccc(Nc2ncc(F)c(-c3ccc(OC(F)(F)F)cc3)n2)cc1" and give its measured Vd.
Return: 4.67 L/kg

Enquiry: Give its Vd value. Item: "Cc1c(C(=O)Nc2ccc(N3C[C@@H](C)O[C@@H](C)C3)nc2)cccc1-c1ccc(OC(F)(F)F)cc1"
Return: 0.955 L/kg

Enquiry: Form field: reported Vd of "O=C(Nc1cccc(CN2CCOCC2)c1)c1ccc(Nc2nccc(-c3ccc(OC(F)(F)F)cc3)n2)cc1"
Return: 6.33 L/kg

Enquiry: I would be grateful if you could share the reported Vd for "Cc1ccc(CN2CCOCC2)cc1NC(=O)c1ccc(Nc2nccc(-c3ccc(OC(F)(F)F)cc3)n2)cc1" .
Return: 2.87 L/kg

###

Assay: AUC (0 to t) in Sprague-Dawley rat at 1 mg/kg, iv by LC/MS/MS analysis
Type: ADME, organism-based
Conditions: in vivo
measured-attribute: AUC(0-t) (ng·h/mL)
Give the value in ng·h/mL but do not write ng·h/mL after it.

Enquiry: Would you kindly share the measured AUC(0-t) for "Cc1c(C(=O)Nc2ccc(N3C[C@@H](C)O[C@@H](C)C3)nc2)cccc1-c1ccc(OC(F)(F)F)cc1" ?
Return: 2200

Enquiry: Reported AUC(0-t), molecule "Cc1ccc(CN2CCOCC2)cc1NC(=O)c1ccc(Nc2ncc(F)c(-c3ccc(OC(F)(F)F)cc3)n2)cn1" : ____
Return: 1890

Enquiry: AUC(0-t) for "Cc1ccc(CN2CCOCC2)cc1NC(=O)c1ccc(Nc2ncc(F)c(-c3ccc(OC(F)(F)F)cc3)n2)cc1" ?
Return: 2030

Enquiry: Query (molecule): "O=C(Nc1cccc(CN2CCOCC2)c1)c1ccc(Nc2nccc(-c3ccc(OC(F)(F)F)cc3)n2)cc1" ; field requested: AUC(0-t)
Return: 769

Enquiry: Need AUC(0-t), item "Cc1ccc(CN2CCOCC2)cc1NC(=O)c1ccc(Nc2ncc(F)c(-c3ccc(OC(F)(F)F)cc3)n2)nc1"
Return: 625

Enquiry: Would you kindly share the measured AUC(0-t) for "Cc1ccc(CN2CCOCC2)cc1NC(=O)c1ccc(Nc2nccc(-c3ccc(OC(F)(F)F)cc3)n2)cc1" ?
Return: 2440
